- Tested on: SUDIPGIV (diffuse intrinsic pontine glioma line)
- assayNotes: growth inhibition (% activity, log2 RLU normalised to DMSO / staurosporine); higher = more growth inhibition
- runParameters: 33 µM
// reported growth inhibition per item

{"compound": "CNCCc1ccccn1", "targetUnderTest": "SUDIPGIV", "growth inhibition (%)": 1.96}
{"compound": "Cc1cn(-c2cc(NC(=O)c3ccc(C)c(Nc4nccc(-c5cccnc5)n4)c3)cc(C(F)(F)F)c2)cn1", "targetUnderTest": "SUDIPGIV", "growth inhibition (%)": 1.93}
{"compound": "OCCOCCN1CCN(C(c2ccccc2)c2ccc(Cl)cc2)CC1 (stereo not drawn)", "targetUnderTest": "SUDIPGIV", "growth inhibition (%)": 1.02}
{"compound": "CCC(=O)O[C@@H](O[P@](=O)(CCCCc1ccccc1)CC(=O)N1C[C@H](C2CCCCC2)C[C@H]1C(=O)O)C(C)C", "targetUnderTest": "SUDIPGIV", "growth inhibition (%)": 1.26}
{"compound": "CCC[C@@H]1C[C@@H](C(=O)N[C@@H]([C@H]2O[C@H](SC)[C@H](O)[C@@H](O)[C@H]2O)[C@@H](C)O)N(C)C1", "targetUnderTest": "SUDIPGIV", "growth inhibition (%)": 0.1}
{"compound": "CC1=C(CC(=O)O)c2cc(F)ccc2/C1=C\\c1ccc([S+](C)[O-])cc1 (stereo not drawn)", "targetUnderTest": "SUDIPGIV", "growth inhibition (%)": 0.82}
{"compound": "CCCCN(CCCC)CCCOC(=O)c1ccc(N)cc1", "targetUnderTest": "SUDIPGIV", "growth inhibition (%)": 1.64}
{"compound": "C=CC[C@@H]1/C=C(\\C)C[C@H](C)C[C@H](OC)[C@H]2O[C@@](O)(C(=O)C(=O)N3CCCC[C@H]3C(=O)O[C@H](/C(C)=C/[C@@H]3CC[C@@H](O)[C@H](OC)C3)[C@H](C)[C@@H](O)CC1=O)[C@H](C)C[C@@H]2OC", "targetUnderTest": "SUDIPGIV", "growth inhibition (%)": 4.72}
